Biological target: Nuclear receptor subfamily 1 group I member 2 (Homo sapiens)
Assay: NVS_NR_hPXR: NovaScreen (NVS) Nuclear Receptor Binding Assay for human Pregnane X Receptor (PXR) (AID 2283365);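 note: a drop in FRET signal versus DMSO baseline means the compound binds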
Records with an inconclusive call do not appear. Active and inactive are the calls of the source. Rule for the calls: active = hit-call score of the fitted dose curve at least 0.9, where 1 is the maximum; inconclusive = response in the unintended direction; inactive = score below 0.9.
Outcome field: choose from TRUE (active), FALSE (inactive)

Dear colleague, could you share the recorded outcome for C=CCC1=C(C)[C@@H](OC(=O)[C@@H]2[C@@H](C=C(C)C)C2(C)C)CC1=O when you have a moment?
FALSE

Dear colleague, could you share the recorded outcome for CNC(=S)S when you have a moment?
FALSE

Dear colleague, could you share the recorded outcome for CCCN(CCC)c1c([N+](=O)[O-])cc(S(N)(=O)=O)cc1[N+](=O)[O-] when you have a moment?
TRUE

Dear colleague, could you share the recorded outcome for CCCCOC(=O)c1ccccc1C(=O)OCCCC when you have a moment?
FALSE
